Below, each entry is listed with its recorded IC50.
- tested_on: T1, hRSV FTM-NN (membrane anchorless form of the Long fusion protein, 70 kDa) (human respiratory syncytial virus, …, UniProt P12568 26-524)
- T1 construct: also called FTM-NN (Long); hRSV FTM-protein
- test: competition ELISA on FTM-NN, competitor Synagis Mab, purified Nanobody
Give the value in nM but do not write nM after it.

Sample answers from the record:
- Nanobody NC41 (VHH) VHH: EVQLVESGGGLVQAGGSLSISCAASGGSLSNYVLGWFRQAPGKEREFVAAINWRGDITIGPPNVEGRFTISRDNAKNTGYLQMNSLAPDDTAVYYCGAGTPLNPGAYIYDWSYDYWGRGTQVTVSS: 416
- Nanobody 1G3 (VHH, also called PMP1G3; PRSV1G3) VHH: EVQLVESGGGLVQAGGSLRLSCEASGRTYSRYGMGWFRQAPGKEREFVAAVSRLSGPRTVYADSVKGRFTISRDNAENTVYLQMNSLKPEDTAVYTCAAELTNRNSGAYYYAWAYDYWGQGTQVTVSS: 72.5
- Nanobody 19C4 (VHH, also called PMP19C4; PRSV19C4) VHH: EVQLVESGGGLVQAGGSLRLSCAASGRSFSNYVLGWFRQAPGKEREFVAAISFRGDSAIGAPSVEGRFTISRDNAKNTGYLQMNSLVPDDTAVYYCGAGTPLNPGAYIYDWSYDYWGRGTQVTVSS: 209

Turning to the following binder.
Ask: Retrieve IC50 measured for Nanobody 7B2 (VHH, also called PMP7B2; PRSV7B2) VHH: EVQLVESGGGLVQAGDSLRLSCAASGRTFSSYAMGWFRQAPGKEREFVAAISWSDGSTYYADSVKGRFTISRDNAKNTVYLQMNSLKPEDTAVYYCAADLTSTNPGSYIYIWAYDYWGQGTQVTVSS and print it.
Reply: 1.93
